Tested on: SF-295 CNS
assay.overview: NCI tumour cell line growth inhibition, 48 h
quantity: TGI (µM)
Numbers only, in µM.

Below are some compounds; for each one, tell me its TGI.
1. O=C1C=C(Nc2cccnc2)c2ccccc2C1=O
2. Cc1ccc(S(=O)(=O)/N=C(\NO)Nc2ccc(Cl)c(Cl)c2)cc1
3. CN1CCN(Cc2ccc(NC(=O)c3cncc(C#Cc4cnc5ccc(Cl)nn45)c3)cc2C(F)(F)F)CC1
4. COc1ccc2c(c1)C(=O)c1c-2c(=O)n(CCCCCCC(=O)NO)c2ccccc12
5. CNCCC/C=C1\c2cc3c(cc2-c2c1c1cc(OC)c(OC)cc1c(=O)n2C)OCO3

1. 9.09
2. 31.8
3. 5.32
4. 4.85
5. 2.27

----------
Tested on: UO-31 renal
assay.overview: NCI tumour cell line growth inhibition, 48 h
For each entry below, report its log10 of TGI value.
Give log10 of TGI, with TGI taken in µM.

Solved cases (3 shown):
Cc1nc2c(nc1C)C(=O)C1=C(C2=O)C2C=CC1CC2    1.42
Cc1ccc2cc3cccc(C(=O)NCCN(C)C)c3nc2c1    0.50
O=C(C1CC1)N1CC[C@@H](Cc2n[nH]c(=O)n2-c2ccc(-c3ccc4occc4c3)cc2)C1    1.82

Below are some compounds; for each one, tell me its log10 of TGI.
1. CC(C)=C[C@@H]1C[C@H](C)[C@H]2CC[C@H](C)c3c(O)c(OC4OCC(O)C(O)C4O)c(C)c1c32 (stereo not given in full)
2. COc1c(O)ccc(C2=Cc3ccc(O)cc3OC2)c1OC
3. NC(=O)c1ccc(NCC2=CC(=O)C=CC2=O)cc1
4. CC(C)c1nc(Cl)nc(Cl)c1Cl
5. CN(C)CCn1c(=O)nc2c3c(c([N+](=O)[O-])ccc31)Nc1ccc(O)cc1-2

[1.50, 1.45, 1.50, -0.78, 1.46]

Below are some compounds; for each one, tell me its log10 of TGI.
1. C=C(C)[C@@H]1CC[C@]2(C)[C@H](CC[C@@H]3[C@@H]([C@@](C)(O)CCC=C(C)C)CC[C@]32C)[C@@]1(C)CCC(=O)N1CCN(C)CC1
2. Nc1cc2ccccc2c(O)c1O
3. N#CC(C#N)N=Nc1ccc(-c2nc3ccccc3s2)cc1
4. COC(=O)[C@@H](C)C[C@H](Cc1ccccc1)NC(=O)c1nc([C@@H](C[C@H](C(C)C)N(C)C(=O)[C@@H](NC(=O)[C@H]2CCCCN2C)C(C)C)OC(C)=O)sc1C(C)C
5. CC(=O)O[C@H]1[C@@H]2OC(=O)C3(CC3)C2C[C@H]2O[C@]2(C)CC/C=C(\C)CCC[C@@H]1C (stereo not given in full)
6. O=C(Nc1ccc(-n2ccc3c(NC(=O)c4ccccc4)ncnc32)cc1)c1ccc(Cl)c(C(F)(F)F)c1
7. N#C/C(=C/N1C(=O)/C(=C/c2ccc([N+](=O)[O-])cc2)SC1=S)c1nc2ccccc2s1
8. O=c1ccc2[n+]([O-])c3ccc(O)cc3oc-2c1

1: 1.37; 2: 1.01; 3: 1.34; 4: 0.73; 5: 1.81; 6: 1.37; 7: 1.80; 8: 0.90

What value of log10 of TGI has been reported for the following compound? CCCCCCCCCOc1c(OC)cc(C2CC(=O)Nc3c2c(C)nn3-c2nc3ccccc3[nH]2)cc1OC (stereo not given)
0.12

FYI, the data here is from PubChem BioAssay (NCI).
